Cited source for all entries: the supplement of paper PMC6555819

Tested on: PPARg:RXRa IVT, anti-PPARg (NR concentration 270 nM, RXRa partner concentration 90 nM)
Assay: PBM binding z-score (relative to random genomic background probes); higher = stronger binding; sequences stand for … in GC…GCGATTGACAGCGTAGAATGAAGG
MEASURED_METRIC: PBM binding z-score
Keep it simple and answer with nothing but the number.

Before answering, review these 10 worked examples.
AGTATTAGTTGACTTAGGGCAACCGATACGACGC :: 0.548
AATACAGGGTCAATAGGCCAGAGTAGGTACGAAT :: 4.21
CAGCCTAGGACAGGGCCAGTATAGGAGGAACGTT :: -0.805
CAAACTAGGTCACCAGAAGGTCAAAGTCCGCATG :: 9
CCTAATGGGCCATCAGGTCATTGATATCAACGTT :: 3.41
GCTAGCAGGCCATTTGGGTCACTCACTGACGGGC :: 2.51
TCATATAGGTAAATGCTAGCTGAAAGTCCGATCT :: 1.89
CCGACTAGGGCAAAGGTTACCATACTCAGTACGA :: 6.42
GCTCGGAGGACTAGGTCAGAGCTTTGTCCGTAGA :: 2.73
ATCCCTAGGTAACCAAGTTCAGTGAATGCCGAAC :: 0.606

Value of PBM binding z-score reported for the sequence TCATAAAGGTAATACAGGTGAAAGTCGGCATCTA is 2.39

Value of PBM binding z-score reported for the sequence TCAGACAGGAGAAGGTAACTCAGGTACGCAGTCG is -0.153

Value of PBM binding z-score reported for the sequence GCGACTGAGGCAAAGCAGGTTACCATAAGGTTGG is -0.228

Value of PBM binding z-score reported for the sequence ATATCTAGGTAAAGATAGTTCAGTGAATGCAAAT is 5.59

Value of PBM binding z-score reported for the sequence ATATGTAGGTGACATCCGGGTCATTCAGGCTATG is 8.07

Value of PBM binding z-score reported for the sequence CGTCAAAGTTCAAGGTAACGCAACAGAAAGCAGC is 2.53

Value of PBM binding z-score reported for the sequence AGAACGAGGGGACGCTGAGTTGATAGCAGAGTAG is 0.723

Value of PBM binding z-score reported for the sequence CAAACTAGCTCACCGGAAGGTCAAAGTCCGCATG is 1.36

Value of PBM binding z-score reported for the sequence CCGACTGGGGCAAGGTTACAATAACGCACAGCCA is 3.29

Value of PBM binding z-score reported for the sequence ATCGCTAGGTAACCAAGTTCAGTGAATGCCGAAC is 0.465

Value of PBM binding z-score reported for the sequence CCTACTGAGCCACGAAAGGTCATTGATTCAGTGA is 1.29

Value of PBM binding z-score reported for the sequence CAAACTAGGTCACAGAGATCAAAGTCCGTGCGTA is 9.06

Value of PBM binding z-score reported for the sequence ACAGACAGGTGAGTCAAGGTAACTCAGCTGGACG is 0.646

====

PBM binding z-score values, listed per item
System: PPARg homodimer (NR concentration 180 nM)
Experiment: PBM binding z-score (relative to random genomic background probes); higher = stronger binding; sequences stand for … in GC…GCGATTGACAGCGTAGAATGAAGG
Keep it simple and answer with nothing but the number.

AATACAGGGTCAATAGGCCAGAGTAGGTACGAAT :: 2.2
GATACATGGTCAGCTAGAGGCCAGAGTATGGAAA :: -0.578

Value of PBM binding z-score reported for the sequence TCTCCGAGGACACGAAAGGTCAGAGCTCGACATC is 2.54

Value of PBM binding z-score reported for the sequence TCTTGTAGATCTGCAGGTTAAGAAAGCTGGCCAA is -0.597

Value of PBM binding z-score reported for the sequence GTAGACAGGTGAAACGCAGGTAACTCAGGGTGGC is -0.292

Value of PBM binding z-score reported for the sequence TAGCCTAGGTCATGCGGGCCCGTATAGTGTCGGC is 0.405

Value of PBM binding z-score reported for the sequence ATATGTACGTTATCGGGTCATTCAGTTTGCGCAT is 1.32

Value of PBM binding z-score reported for the sequence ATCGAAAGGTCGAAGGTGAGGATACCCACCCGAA is 1.6

Value of PBM binding z-score reported for the sequence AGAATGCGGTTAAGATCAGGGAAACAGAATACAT is 0.393

====

PBM binding z-score values, listed per item
System: PPARg:RXRa 30nM:10nM, anti-RXR (NR concentration 30 nM, RXRa partner concentration 10 nM)
Experiment: PBM binding z-score (relative to random genomic background probes); higher = stronger binding; sequences stand for … in GC…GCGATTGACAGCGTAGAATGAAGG
Keep it simple and answer with nothing but the number.

Before answering, review these 3 worked examples.
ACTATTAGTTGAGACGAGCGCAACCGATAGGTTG :: -0.422
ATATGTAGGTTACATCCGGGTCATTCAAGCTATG :: 2.73
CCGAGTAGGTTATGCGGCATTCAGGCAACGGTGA :: -0.439

Value of PBM binding z-score reported for the sequence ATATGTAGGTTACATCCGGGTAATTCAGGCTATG is 1.75

Value of PBM binding z-score reported for the sequence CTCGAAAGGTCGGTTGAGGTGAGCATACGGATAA is 0.406

====

System: PPARg:RXRa 30nM:10nM, anti-RXR (NR concentration 30 nM, RXRa partner concentration 10 nM)
Assay: PBM binding z-score (relative to random genomic background probes); higher = stronger binding; sequences stand for … in GC…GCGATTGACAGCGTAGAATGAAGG
PBM binding z-score values, listed per item

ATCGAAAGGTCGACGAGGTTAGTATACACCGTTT :: 0.863
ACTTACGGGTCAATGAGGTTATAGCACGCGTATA :: 2.44
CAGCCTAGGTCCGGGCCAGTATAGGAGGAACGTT :: -0.996
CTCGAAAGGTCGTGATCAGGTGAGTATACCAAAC :: 1.2
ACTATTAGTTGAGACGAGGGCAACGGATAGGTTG :: -0.0194
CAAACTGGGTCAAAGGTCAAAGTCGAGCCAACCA :: 13.5
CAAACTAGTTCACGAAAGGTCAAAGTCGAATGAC :: 2.24
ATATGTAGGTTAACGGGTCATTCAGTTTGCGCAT :: 4.4

Value of PBM binding z-score reported for the sequence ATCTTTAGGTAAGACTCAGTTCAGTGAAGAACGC is 0.146

Value of PBM binding z-score reported for the sequence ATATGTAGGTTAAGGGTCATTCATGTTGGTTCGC is 9.79

Value of PBM binding z-score reported for the sequence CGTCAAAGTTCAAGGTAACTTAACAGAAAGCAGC is 1.81

Value of PBM binding z-score reported for the sequence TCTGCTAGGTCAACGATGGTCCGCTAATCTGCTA is 1.9

====

System: RARa:RXR (NR concentration 270 nM, RXRa partner concentration 90 nM)
Experiment: PBM binding z-score (relative to random genomic background probes); higher = stronger binding; sequences stand for … in GC…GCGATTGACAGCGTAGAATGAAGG
MEASURED_METRIC: PBM binding z-score
Keep it simple and answer with nothing but the number.

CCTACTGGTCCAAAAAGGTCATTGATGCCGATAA :: 4.95
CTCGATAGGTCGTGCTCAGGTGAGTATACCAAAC :: 1.44

# value of PBM binding z-score, RARa:RXR (NR concentration 270 nM, RXRa partner concentration 90 nM), item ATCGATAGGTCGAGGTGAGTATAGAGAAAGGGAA = 0.853

====

PBM binding z-score values, listed per item
System: RARa:RXR (NR concentration 270 nM, RXRa partner concentration 90 nM)
Experiment: PBM binding z-score (relative to random genomic background probes); higher = stronger binding; sequences stand for … in GC…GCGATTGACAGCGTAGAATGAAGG
Keep it simple and answer with nothing but the number.

Before answering, review these 10 worked examples.
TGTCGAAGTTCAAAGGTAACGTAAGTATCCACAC :: 4.17
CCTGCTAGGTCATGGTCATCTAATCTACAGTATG :: 2.23
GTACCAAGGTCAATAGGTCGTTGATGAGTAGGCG :: 4.91
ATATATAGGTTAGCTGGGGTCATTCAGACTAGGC :: 5.27
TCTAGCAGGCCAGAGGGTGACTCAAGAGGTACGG :: -0.247
CGTCCAAGGTCAGCAGGTCAGCGAAAGCGACGTG :: 5.3
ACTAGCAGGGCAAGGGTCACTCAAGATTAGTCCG :: 4.49
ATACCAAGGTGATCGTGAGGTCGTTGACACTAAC :: 2.52
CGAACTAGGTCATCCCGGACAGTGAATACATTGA :: 2.24
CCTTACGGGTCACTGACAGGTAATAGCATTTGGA :: 4.05

Value of PBM binding z-score reported for the sequence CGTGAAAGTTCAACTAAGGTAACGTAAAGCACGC is 3.81

Value of PBM binding z-score reported for the sequence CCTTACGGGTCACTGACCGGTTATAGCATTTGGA is 3.72
